biological target: first (BD1: amino acids K57-E168) bromodomain of BRD4 (Homo sapiens, UniProt O60885); construct: His-tagged first (BD1: amino acids K57-E168); test: TR-FRET bromodomain binding assay, BRD4 BD1; conditions: TR-FRET assay protocol (D, E or G) per compound; Ki calculated from IC50, probe Kd and probe concentration; read-out: TR-FRET Binding Ki: BRD4 (BDI_K57-E168)
quantity.measured: Ki (nM)
Use nM as the unit, but write only the number.

Please review the following examples before continuing.
1) CCOc1cc(=O)n(C)cc1-c1cc(NS(=O)(=O)CC)ccc1O[C@H]1CC[C@H](NC(=O)OC(C)(C)C)CC1 [Example 395]    105
2) CCOc1cc(=O)n(C)cc1-c1cc(NS(=O)(=O)CC)ccc1OC1CCC1 [Example 384]    65.3
3) CCOc1cc(=O)n(C)cc1-c1cc(S(=O)(=O)CC)ccc1Oc1ccc(C#N)cc1 [Example 378]    113

Can you look up the measured Ki of CCOc1cc(=O)n(C)cc1-c1cc(NC(=O)c2cncs2)ccc1Oc1ccc(F)cc1F [Example 411] for me?
61.3

Can you look up the measured Ki of CCOc1cc(=O)n(C)cc1-c1cc(NC(=O)c2cnc(C)cn2)ccc1Oc1ccc(F)cc1F [Example 414] for me?
61.4

Can you look up the measured Ki of CCOc1cc(=O)n(C)cc1-c1cc(S(=O)(=O)N2CCc3ccccc32)ccc1OCC1CC1 [Example 397] for me?
75.2
